Recorded IC50 values for a group of compounds are listed next.
molecular target: recombinant human DYRK1A (Homo sapiens, UniProt Q13627); construct: purchased Invitrogen; test: In vitro kinase assay: DYRK1A catalyzed direct phosphorylation of recombinant tau on serine 396 (western); assay type: biochemical; conditions: recombinant DYRK1A + 4R2N tau, 1 mM ATP, 30 min 30C; read-out: IC50 for inhibition of DYRK1A dependent tau phosphorylation at serine 396 (pS396)

{"Input Smiles": "Cc1nccc2c1[nH]c1ccccc12", "IC50, µM": 15}
{"Input Smiles": "c1ccc2c(c1)[nH]c1cnccc12", "IC50, µM": 45}
{"Input Smiles": "COc1ccc2c3c([nH]c2c1)C(C)=NCC3", "IC50, µM": 9}

* * *

Recorded IC50 values for a group of compounds are listed next.
biological target: recombinant human DYRK1A (Homo sapiens, UniProt Q13627); construct: purchased Invitrogen; assay: In vitro kinase assay: DYRK1A catalyzed direct phosphorylation of recombinant tau on serine 396 (western); assay type: biochemical; settings: recombinant DYRK1A + 4R2N tau, 1 mM ATP; read-out: IC50 for inhibition of DYRK1A dependent tau phosphorylation at serine 396
Property Label: IC50 (nM)

{"Compound": "Cc1[nH]ccc2c1[nH]c1cc(=O)ccc12 [Harmol, harmol]", "Property Label": "IC50", "Unit Text": "nM", "Reported Value": 90}
{"Compound": "CCn1c2cc(OC)ccc2c2ccnc(C)c21 [9-ethylharmine]", "Property Label": "IC50", "Unit Text": "nM", "Reported Value": 400}

* * *

assay: alamar Blue viability (toxicity) assay; format: cell-based; conditions: human; H4 neuroglioma cells, drug renewed every 24 h for four days; read-out: IC50 for viability (concentration resulting in 50% cell viability)
Property Label: IC50 at 4 days (µM)

{"Input Smiles": "COc1ccc2c(c1)[nH]c1c(C)nccc12", "Property Label": "IC50 at 4 days", "Unit Text": "µM", "Reported Value": 12}
